Molecular target: DNA topoisomerase 1 (Homo sapiens) (UniProt P11387)
Sequence (P11387 whole entry): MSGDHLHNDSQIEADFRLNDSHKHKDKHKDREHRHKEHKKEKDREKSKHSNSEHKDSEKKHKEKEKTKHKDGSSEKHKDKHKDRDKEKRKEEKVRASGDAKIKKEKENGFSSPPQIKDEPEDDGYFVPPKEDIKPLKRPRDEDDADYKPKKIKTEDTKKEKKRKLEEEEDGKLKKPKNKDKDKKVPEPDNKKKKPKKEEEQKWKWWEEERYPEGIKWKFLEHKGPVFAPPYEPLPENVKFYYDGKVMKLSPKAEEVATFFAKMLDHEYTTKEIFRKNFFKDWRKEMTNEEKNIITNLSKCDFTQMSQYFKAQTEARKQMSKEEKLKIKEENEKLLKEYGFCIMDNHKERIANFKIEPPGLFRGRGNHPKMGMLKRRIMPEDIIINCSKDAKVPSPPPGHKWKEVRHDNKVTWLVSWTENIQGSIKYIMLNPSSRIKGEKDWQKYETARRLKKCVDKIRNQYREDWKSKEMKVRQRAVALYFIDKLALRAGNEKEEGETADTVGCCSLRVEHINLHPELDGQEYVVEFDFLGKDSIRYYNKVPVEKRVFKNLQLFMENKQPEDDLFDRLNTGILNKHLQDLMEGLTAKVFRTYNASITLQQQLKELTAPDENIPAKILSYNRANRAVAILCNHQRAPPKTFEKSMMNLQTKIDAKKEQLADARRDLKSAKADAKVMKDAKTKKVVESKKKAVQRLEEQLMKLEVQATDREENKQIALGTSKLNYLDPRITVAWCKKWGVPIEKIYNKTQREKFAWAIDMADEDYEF
Test: Inhibition of human topoisomerase-1 assessed as inhibition of relaxation of supercoiled pBR322 plasmid DNA at 20 uM measured after 1 hr by ethidium bromide staining based agarose gel electrophoresis relative to control
Reported inhibition values for the following compounds.
quantity_kind: inhibition (%)

compound: CCOc1ccc2c(c1)Oc1cc(OC(=O)c3ccccc3[N+](=O)[O-])ccc1C21c2ccccc2C(=O)N1/N=C/c1ccc(OC)c(OC(=O)c2ccccc2[N+](=O)[O-])c1 (stereo not drawn)
val: 15.8
//
compound: CCOc1ccc2c(c1)Oc1cc(OC(=O)c3ccccc3OC)ccc1C21c2ccccc2C(=O)N1/N=C/c1ccccc1OC (stereo not drawn)
val: 6.8
//
compound: CCOc1ccc2c(c1)Oc1cc(OC(=O)c3ccccc3Cl)ccc1C21c2ccccc2C(=O)N1/N=C/c1ccc(Cl)cc1 (stereo not drawn)
val: 36.4
//
compound: CCOc1ccc2c(c1)Oc1cc(OC(=O)c3ccccc3)ccc1C21c2ccccc2C(=O)N1/N=C/c1ccccc1OC (stereo not drawn)
val: 48.1
//
compound: CCOc1ccc2c(c1)Oc1cc(O)ccc1C21c2ccccc2C(=O)N1/N=C/c1ccccc1O (stereo not drawn)
val: 28.1
//
compound: CCOc1ccc2c(c1)Oc1cc(OC(=O)c3ccccc3)ccc1C21c2ccccc2C(=O)N1/N=C/c1ccccc1OC(=O)c1ccccc1 (stereo not drawn)
val: 55.9
//
compound: CCOc1ccc2c(c1)Oc1cc(OC(=O)c3ccccc3Cl)ccc1C21c2ccccc2C(=O)N1/N=C/c1ccc(OC(=O)c2ccccc2Cl)cc1 (stereo not drawn)
val: 24.6
//
compound: CCOc1ccc2c(c1)Oc1cc(OC(=O)c3ccccc3[N+](=O)[O-])ccc1C21c2ccccc2C(=O)N1/N=C/c1ccc(Cl)cc1Cl (stereo not drawn)
val: 77
//
compound: CCOc1ccc2c(c1)Oc1cc(OC(=O)c3ccccc3)ccc1C21c2ccccc2C(=O)N1/N=C/c1ccc(OC(=O)c2ccccc2)cc1 (stereo not drawn)
val: 9.2
//
compound: CCOc1ccc2c(c1)Oc1cc(OC(=O)c3ccccc3)ccc1C21c2ccccc2C(=O)N1/N=C/c1ccc(OC)cc1 (stereo not drawn)
val: 9.8
//
compound: CCOc1ccc2c(c1)Oc1cc(O)ccc1C21c2ccccc2C(=O)N1/N=C/c1ccccc1[N+](=O)[O-] (stereo not drawn)
val: 14.8
//
compound: CCOc1ccc2c(c1)Oc1cc(OC(=O)c3ccccc3Cl)ccc1C21c2ccccc2C(=O)N1/N=C/c1ccccc1[N+](=O)[O-] (stereo not drawn)
val: 0
//
compound: CCOc1ccc2c(c1)Oc1cc(OC(=O)c3ccccc3[N+](=O)[O-])ccc1C21c2ccccc2C(=O)N1/N=C/c1ccc(OC)cc1 (stereo not drawn)
val: 3.5

----------
// reported inhibition for each item listed
Molecular target: DNA topoisomerase 2-alpha (Homo sapiens)
Assay: Inhibition of human topoisomerase-2 alpha assessed as inhibition of relaxation of supercoiled pBR322 plasmid DNA at 20 uM measured after 1 hr by ethidium bromide staining based agarose gel electrophoresis relative to control

compound: CCOc1ccc2c(c1)Oc1cc(O)ccc1C21c2ccccc2C(=O)N1/N=C/c1ccccc1O (stereo not drawn)
unit_descriptor: %
inhibition: 1.9
--
compound: CCOc1ccc2c(c1)Oc1cc(O)ccc1C21c2ccccc2C(=O)N1/N=C/c1ccccc1OC (stereo not drawn)
unit_descriptor: %
inhibition: 3.3
--
compound: CCOc1ccc2c(c1)Oc1cc(OC(=O)c3ccccc3Cl)ccc1C21c2ccccc2C(=O)N1/N=C/c1ccc(Cl)cc1 (stereo not drawn)
unit_descriptor: %
inhibition: 1.5
